test: Selectivity index, ratio of CC50 for African green monkey Vero cells to MIC for Mycobacterium tuberculosis H37Rv; assay type: toxicity; conditions: read-out: Selectivity Index
Please respond with reported selectivity ratio for every item in the list.

Task item: Reported selectivity ratio, molecule `N#Cc1ccc(/C=C/c2nc3cccc(F)c3c(=O)n2-c2cccc(O)c2)cc1` : ____
Reply: > 12.5

Task item: Reported selectivity ratio, molecule `C#CCOc1cccc(-n2c(/C=C/c3ccc(C#N)cc3)nc3cccc(F)c3c2=O)c1` : ____
Reply: > 5

Task item: Reported selectivity ratio, molecule `Cc1nc2ccc(OCc3cn(-c4ccc(Cl)cc4)nn3)cc2c(=O)n1-c1ccccc1` : ____
Reply: > 2.08

Task item: Reported selectivity ratio, molecule `Cc1nc2ccc(OCc3cn(-c4cccc(Cl)c4)nn3)cc2c(=O)n1-c1ccccc1` : ____
Reply: > 6.25

Task item: Reported selectivity ratio, molecule `Cc1nc2cc(-c3ccc(F)cc3)ccc2c(=O)n1-c1cccc(Cl)c1` : ____
Reply: > 0.93

Task item: Reported selectivity ratio, molecule `Cc1nc2cc(-c3ccccc3)ccc2c(=O)n1-c1cccc(Cl)c1` : ____
Reply: 0.78

Task item: Reported selectivity ratio, molecule `C#CCNc1ccc2c(=O)n(-c3ccccc3)c(C)nc2c1` : ____
Reply: > 25

###

Please respond with reported MIC for every item in the list.
tested on: Staphylococcus aureus; experiment: Antibacterial activity against Staphylococcus aureus ATCC 29213 incubated for 16 to 18 hrs by broth microdilution assay; type: functional

Task item: Reported MIC, molecule `C#CCOc1cccc(-n2c(/C=C/c3ccc(C#N)cc3)nc3cccc(F)c3c2=O)c1` : ____
Reply: 0.5 µg/mL

Task item: Reported MIC, molecule `N#Cc1ccc(/C=C/c2nc3ccccc3c(=O)n2-c2ccc(O)cc2C(=O)O)cc1` : ____
Reply: > 64 µg/mL

Task item: Reported MIC, molecule `Cc1nc2cc(-n3cc(COc4ccc5nc(C)n(-c6ccccc6)c(=O)c5c4)nn3)ccc2c(=O)n1-c1ccccc1` : ____
Reply: > 64 µg/mL

Task item: Reported MIC, molecule `COc1cc(-n2c(/C=C/c3ccc(C#N)cc3)nc3ncccc3c2=O)cc(OC)c1OC` : ____
Reply: 64 µg/mL

Task item: Reported MIC, molecule `Cc1nc2ccc(OCc3cn(-c4ccc(Cl)cc4)nn3)cc2c(=O)n1-c1ccccc1` : ____
Reply: > 64 µg/mL

###

system: Staphylococcus aureus; test: Antibacterial activity against Staphylococcus aureus ATCC 29213 incubated for 16 to 18 hrs by broth microdilution assay; format: functional
ASSAY READOUT: MIC

Task item: Reported MIC, compound `Cc1ccc(C)c(-n2c(/C=C/c3ccc(C#N)cc3)nc3ncccc3c2=O)c1` : ____
Reply: > 64 mg/L

Task item: Reported MIC, compound `Cc1cc(C)cc(OCc2cn(-c3ccc4c(=O)n(-c5cccc(Cl)c5)c(C)nc4c3)nn2)c1` : ____
Reply: > 64 mg/L

Task item: Reported MIC, compound `Cc1nc2cc(-n3cc(-c4ccccc4)nn3)ccc2c(=O)n1-c1ccccc1` : ____
Reply: > 64 mg/L

Task item: Reported MIC, compound `N#Cc1ccc(/C=C/c2nc3ncccc3c(=O)n2-c2cccc(C#N)c2)cc1` : ____
Reply: > 64 mg/L

Task item: Reported MIC, compound `N#Cc1ccc(/C=C/c2nc3ncccc3c(=O)n2-c2ccc(S)cc2)cc1` : ____
Reply: 2 mg/L

Task item: Reported MIC, compound `Cc1nc2cc(NCc3cn(-c4ccc(F)c(Cl)c4)nn3)ccc2c(=O)n1-c1ccccc1` : ____
Reply: > 64 mg/L

Task item: Reported MIC, compound `C#Cc1cccc(-n2c(/C=C/c3ccc(C#N)cc3)nc3cccc(F)c3c2=O)c1` : ____
Reply: 0.25 mg/L

Task item: Reported MIC, compound `CC(C)(C)c1ccc(-n2c(/C=C/c3ccc(C#N)cc3)nc3ncccc3c2=O)cc1` : ____
Reply: > 64 mg/L

Task item: Reported MIC, compound C[C@H]1COc2c(N3CCN(C)CC3)c(F)cc3c(=O)c(C(=O)O)cn1c23.C[C@H]1COc2c(N3CCN(C)CC3)c(F)cc3c(=O)c(C(=O)O)cn1c23.O [LEVOFLOXACIN] : ____
Reply: 0.125 to 0.25 mg/L

Task item: Reported MIC, compound `N#Cc1ccc(/C=C/c2nc3ncccc3c(=O)n2-c2ccc(C#N)cc2)cc1` : ____
Reply: 64 mg/L

Task item: Reported MIC, compound `COc1ccc(-c2ccc3nc(C)n(-c4ccccc4)c(=O)c3c2)cc1` : ____
Reply: 32 mg/L

Task item: Reported MIC, compound `COc1ccc(-c2ccc3c(=O)n(-c4cccc(Cl)c4)c(C)nc3c2)cc1` : ____
Reply: > 64 mg/L

Task item: Reported MIC, compound `N#Cc1ccc(/C=C/c2nc3ccccc3c(=O)n2-c2ccc(C(=O)O)c(O)c2)cc1` : ____
Reply: 0.03 mg/L

Task item: Reported MIC, compound `Cc1nc2ccc(OCc3cn(-c4cccc(Cl)c4)nn3)cc2c(=O)n1-c1ccccc1` : ____
Reply: > 64 mg/L

Task item: Reported MIC, compound `COc1ccc(-c2cn(-c3ccc4c(=O)n(-c5ccccc5)c(/C=C/c5ccc(C#N)cc5)nc4c3)nn2)cc1` : ____
Reply: > 64 mg/L

Task item: Reported MIC, compound `N#Cc1ccc(/C=C/c2nc3ccccc3c(=O)n2Nc2ccc(C(F)(F)F)cc2)cc1` : ____
Reply: > 64 mg/L

Task item: Reported MIC, compound `N#Cc1ccc(/C=C/c2nc3cccc(F)c3c(=O)n2-c2cccc(O)c2)cc1` : ____
Reply: 0.0625 mg/L

Task item: Reported MIC, compound CO[C@H]1/C=C/O[C@@]2(C)Oc3c(C)c(O)c4c(O)c(c(/C=N/N5CCN(C)CC5)c(O)c4c3C2=O)NC(=O)/C(C)=C\C=C\[C@H](C)[C@H](O)[C@@H](C)[C@@H](O)[C@@H](C)[C@H](OC(C)=O)[C@@H]1C [RIFAMPIN] : ____
Reply: 0.015 mg/L

Task item: Reported MIC, compound `Cc1nc2ccc(OCc3cn(-c4cccc(Cl)c4)nn3)cc2c(=O)n1Cc1ccccc1` : ____
Reply: > 64 mg/L

Task item: Reported MIC, compound `COC(=O)Cn1c(/C=C/c2ccc(C#N)cc2)nc2ccccc2c1=O` : ____
Reply: > 64 mg/L

Task item: Reported MIC, compound `C=CCOc1cccc(-n2c(/C=C/c3ccc(C#N)cc3)nc3cccc(F)c3c2=O)c1` : ____
Reply: 64 mg/L

Task item: Reported MIC, compound `Cc1cc(-n2cc(CNc3ccc4c(=O)n(-c5ccccc5)c(C)nc4c3)nn2)cc(C)c1C` : ____
Reply: > 64 mg/L

Task item: Reported MIC, compound `N#Cc1ccc(/C=C/c2nc3ncccc3c(=O)n2-c2ccc3c(c2)OCCO3)cc1` : ____
Reply: > 64 mg/L

Task item: Reported MIC, compound `C#CCNc1ccc2c(=O)n(-c3ccccc3)c(/C=C/c3ccc(C#N)cc3)nc2c1` : ____
Reply: > 64 mg/L

Task item: Reported MIC, compound `COc1ccc(-c2ccc3nc(/C=C/c4ccccc4)n(-c4ccccc4)c(=O)c3c2)cc1` : ____
Reply: > 64 mg/L

Task item: Reported MIC, compound `Cc1cccc(-n2c(/C=C/c3ccc(C#N)cc3)nc3ncccc3c2=O)c1C` : ____
Reply: > 64 mg/L

Task item: Reported MIC, compound C[C@@H](O)[C@H]1C(=O)N2C(C(=O)O)=C(S[C@@H]3CN[C@H](C(=O)N(C)C)C3)[C@H](C)[C@H]12 [MEROPENEM] : ____
Reply: 0.25 mg/L

Task item: Reported MIC, compound `COC(=O)Cn1c(/C=C/c2ccc(C#N)cc2)nc2ccc(OCc3cn(-c4ccc(F)c(Cl)c4)nn3)cc2c1=O` : ____
Reply: > 64 mg/L

Task item: Reported MIC, compound `Cc1nc2cc(-c3ccc(F)cc3)ccc2c(=O)n1-c1cccc(Cl)c1` : ____
Reply: > 64 mg/L

Task item: Reported MIC, compound `Cc1nc2cc(-n3cc(COc4ccccc4)nn3)ccc2c(=O)n1-c1ccccc1` : ____
Reply: > 64 mg/L

Task item: Reported MIC, compound `CC(C)(C)c1ccc(-n2c(/C=C/c3ccc(C#N)cc3)nc3ccccc3c2=O)cc1` : ____
Reply: > 64 mg/L

Task item: Reported MIC, compound `N#Cc1ccc(/C=C/c2nc3ccccc3c(=O)n2Cc2ccc(Cl)c(Cl)c2)cc1` : ____
Reply: > 64 mg/L

Task item: Reported MIC, compound `Cc1nc2cc(-c3ccccc3)ccc2c(=O)n1-c1cccc(Cl)c1` : ____
Reply: > 64 mg/L

Task item: Reported MIC, compound `N#Cc1ccc(/C=C/c2nc3ncccc3c(=O)n2Cc2ccc(F)cc2)cc1` : ____
Reply: > 64 mg/L

Task item: Reported MIC, compound `C#Cc1cccc(-n2c(/C=C/c3ccc(C#N)cc3)nc3ncccc3c2=O)c1` : ____
Reply: > 64 mg/L

Task item: Reported MIC, compound `N#Cc1ccc(/C=C/c2nc3ccc(OCc4cn(-c5cccc(Cl)c5)nn4)cc3c(=O)n2Cc2ccccc2)cc1` : ____
Reply: > 64 mg/L

Values from ChEMBL document CHEMBL4393707
